# Tested on: HCC-2998 colon
# Experiment: NCI tumour cell line growth inhibition, 48 h
Measurement Kind: TGI

The cases that follow already have their TGI on record.
[
  {
    "Molecule": "CC1=C(C(=O)NCc2ccccc2)C(c2ccccc2C)C(C(=O)NCc2ccccc2)=C(C)N1",
    "Test Target": "HCC-2998 colon",
    "TGI": "> 60 µM"
  },
  {
    "Molecule": "O=C(COc1ccc(OCC(=O)N2C(=O)CN(c3ccccc3)C2=S)cc1)N1C(=O)CN(c2ccccc2)C1=S",
    "Test Target": "HCC-2998 colon",
    "TGI": "> 100 µM"
  },
  {
    "Molecule": "Nc1ncnc2c1ncn2-c1ccc([N+](=O)[O-])cn1",
    "Test Target": "HCC-2998 colon",
    "TGI": "> 100 µM"
  },
  {
    "Molecule": "CCCCNC(=NCc1ccccc1)NC#N",
    "Test Target": "HCC-2998 colon",
    "TGI": "> 100 µM"
  },
  {
    "Molecule": "CC(C)CC(NP(=O)(O)OC1OC(C)C(O)C(O)C1O)C(=O)NC(Cc1c[nH]c2ccccc12)C(=O)O (stereo not given)",
    "Test Target": "HCC-2998 colon",
    "TGI": "> 100 µM"
  },
  {
    "Molecule": "Cc1cc(S(=O)(=O)NC2=NCCN2Cc2ccccc2)c(S)cc1Cl",
    "Test Target": "HCC-2998 colon",
    "TGI": "> 100 µM"
  },
  {
    "Molecule": "O=c1c2ccccc2nc(-c2ccccc2Cl)n1-c1nnc(C(F)(F)F)s1",
    "Test Target": "HCC-2998 colon",
    "TGI": "19.6 µM"
  },
  {
    "Molecule": "C[C@@H]1O[C@]2(O)[C@@H]3CCCN3S(=O)(=O)CCN2C1=O",
    "Test Target": "HCC-2998 colon",
    "TGI": "> 100 µM"
  },
  {
    "Molecule": "CCOC(=O)c1sc2c(c1O)c(=O)n(-c1ccccc1)c(=S)n2-c1ccccc1",
    "Test Target": "HCC-2998 colon",
    "TGI": "> 100 µM"
  }
]

Find the recorded TGI belonging to NC(Cc1c[nH]c2ccc(F)cc12)C(=O)O (stereo not given) and report it.
> 2500 µM

###

# Test system: SF-295 CNS
# Experiment: NCI tumour cell line growth inhibition, 48 h
Entries annotated with measured TGI

The cases that follow already have their TGI on record.
[
  {
    "Molecule": "COc1cc(COC(=O)N2CC=CC2C(=O)O)c([N+](=O)[O-])cc1OC (centres undefined)",
    "TGI": "> 100 µM"
  },
  {
    "Molecule": "Nc1nnnc2nc[nH]c12",
    "TGI": "> 29.8 µM"
  }
]

Find the recorded TGI belonging to CC/C(=N/O)c1ccc2[nH]c3c(C)cc([N+](=O)[O-])c(C)c3c2c1 and report it.
> 100 µM

###

# Test system: HCC-2998 colon
# Experiment: NCI tumour cell line growth inhibition, 48 h
Measurement Kind: GI50

The cases that follow already have their GI50 on record.
[
  {
    "Molecule": "NC(Cc1c[nH]c2ccc(F)cc12)C(=O)O (centres undefined)",
    "GI50": "1810 µM"
  },
  {
    "Molecule": "N#Cc1ccccc1C#C/C=C\\C#Cc1ccccc1N",
    "GI50": "0.808 µM"
  },
  {
    "Molecule": "O=C(Nc1cccc(-n2cc(-c3ccncc3)c(-c3ccc(O)c(Cl)c3)n2)c1)c1cc(C(F)(F)F)cc(C(F)(F)F)c1",
    "GI50": "3.06 µM"
  },
  {
    "Molecule": "O=C1c2ccccc2C(=O)c2c1ccc1c(=O)n(-c3ccccc3C(F)(F)F)nnc21",
    "GI50": "2.45 µM"
  },
  {
    "Molecule": "CCOC(=O)c1c(NC(=O)c2ccccc2)sc2c3c(ccc12)OCN(C)C3",
    "GI50": "1.03 µM"
  },
  {
    "Molecule": "CC(c1ccccc1)[C@@H](C(=O)Nc1ccc(I)cc1F)N1C(=O)N[C@H](c2ccc(OC[C@H](O)CO)cc2)C1=O (some centres undefined)",
    "GI50": "0.445 µM"
  },
  {
    "Molecule": "C=C1C(=O)O[C@H]2[C@H]1CC/C(Cn1cc(-c3cccc(Cl)c3)nn1)=C\\CC[C@@]1(C)O[C@@H]21",
    "GI50": "1.64 µM"
  },
  {
    "Molecule": "C/C(=N\\n1c(O)c(C#N)cc(C#N)c1=O)c1ccncc1",
    "GI50": "> 100 µM"
  }
]

Let us move to another entry and its GI50.
Find the recorded GI50 belonging to O=C(Nc1ccc(-n2ccc3c(NC(=O)c4ccccc4)nccc32)cc1)Nc1cccc(C(F)(F)F)c1 and report it.
7.46 µM
